- System: MS2 coat protein
- test summary: apparent Kd, MS2 coat protein; higher = weaker binding; RNA-MaP array; FMN 200 µM where present
- measurement context: ligand present: flavin mononucleotide; designed as: OFF switch for flavin mononucleotide
Provide the recorded apparent Kd for the entries that follow.
Form entry: value (nM) — number only.

Request: Report value only: apparent Kd, MS2 coat protein, `GUCAGCUCGUGAGGAUAUACAUGAUAGAUCGAUUAAUUAAUUAAUUUAACAUGAGGAUCACCCAUGUAGAAGGUACGAGCUGAC`
Result: 66.3

Request: Report value only: apparent Kd, MS2 coat protein, `GAAAACAGAGGAUAUACAUAAGCUAGACGAAAGUCUAGCAAACAUGAGGAUCACCCAUGUAGAAGGCUGAAGAA`
Result: 36.3

Request: Report value only: apparent Kd, MS2 coat protein, `GUCAGCUCGUGAGGAUAUACAUGUGCUGGAGACAGCACUAUUAAAUUCACAUGAGGAUCACCCAUGUAGAAGGCACGAGCUGAU`
Result: 18.6

Request: Report value only: apparent Kd, MS2 coat protein, `AACAUGUGAGGAUAUGAGAACAGCCGGGAGGGCUGUGUAAAUUAGAAGGCACAUGAGGAUCACCCAUGUGACCU`
Result: 27.8

Request: Report value only: apparent Kd, MS2 coat protein, `AAGGAGUUAGGAUAUGCUGCUCGUCACUUGCGUGAUGAGUAGCAGAAGGGACAUGAGGAUCACCCAUGUAAAAA`
Result: 21.2

Request: Report value only: apparent Kd, MS2 coat protein, `AUUUAGUCAGGAUAUACAUGAGGAUCACCCAUGUAAACUUUUAGUUUAAUUUGAAUGUGUAGAAGGGACAUUUU`
Result: 29.8

Request: Report value only: apparent Kd, MS2 coat protein, `AAAUUUAACGAAGGAUAUACUAACAUGAGGAUCACCCAUGUGUGUUUCGUGUUGCUGAAAUUCGGGUAGAAGGUCGUAUACAUA`
Result: 28.7

Request: Report value only: apparent Kd, MS2 coat protein, `AAAAAACAUGAGGAUCACCCAUGUGAGGAUAUGAUGCGAAUAAAGAAAGAAGAAAGCAUCAGAAGGCACACCUA`
Result: 83.9

Request: Report value only: apparent Kd, MS2 coat protein, `CAGUACUGAGGAUAUACAUGAGGAUCACCCAUGUGUUCCAGCUAGGAAACUGGCAAAAGUAGAAGGCAGUACUG`
Result: 320

Request: Report value only: apparent Kd, MS2 coat protein, `UUCAGCUCGUCAGGAUAUACGUCACUGCUUCGGCAGUGUGGUAAGAUCACAUGAGGAUCACCCAUGUAGAAGGGACGAGCUGAG`
Result: 312

Request: Report value only: apparent Kd, MS2 coat protein, `GUCCUCAAGACAGGAUAUCCAUACAACGCGCUAGGAGAAGGGUCUACAUGAGGAUCACCCAUGUGAUUCUGAGAAUUUGGUGGG`
Result: 148

Request: Report value only: apparent Kd, MS2 coat protein, `GUCUCAGCUGAGGAUAUAUUCUCCCUUGAGGGAAUAGAAGGCAGUACAUGAGGAUCACCCAUGUGGUUCGUUUG`
Result: 327

Request: Report value only: apparent Kd, MS2 coat protein, `CUUUUGUGAGGAUAUUAGUAGUAAAUAAAUAAAUUUACUACUGAGAAGGCACAUGAGGAUCACCCAUGUUCCUC`
Result: 328

Request: Report value only: apparent Kd, MS2 coat protein, `AAUAUGAGCUGGUAUAAACCCGAAACAUGAGGAUCACCCAUGUAGGAUAUCAGCACGAUAAGUGCUGAGAAGGACAUCCAGCUC`
Result: 14.5

Request: Report value only: apparent Kd, MS2 coat protein, `AGGUACGGUCGAUCAUAUCAAGGUAGAAGGCGACUGGGAAUGUGAGACAUGAGGAUCACCCAUGUCGAGGAUAUACCUGAAAGU`
Result: 50.1
